system_tested: Activin receptor type-1-like (Mus musculus)
Sequence (whole entry): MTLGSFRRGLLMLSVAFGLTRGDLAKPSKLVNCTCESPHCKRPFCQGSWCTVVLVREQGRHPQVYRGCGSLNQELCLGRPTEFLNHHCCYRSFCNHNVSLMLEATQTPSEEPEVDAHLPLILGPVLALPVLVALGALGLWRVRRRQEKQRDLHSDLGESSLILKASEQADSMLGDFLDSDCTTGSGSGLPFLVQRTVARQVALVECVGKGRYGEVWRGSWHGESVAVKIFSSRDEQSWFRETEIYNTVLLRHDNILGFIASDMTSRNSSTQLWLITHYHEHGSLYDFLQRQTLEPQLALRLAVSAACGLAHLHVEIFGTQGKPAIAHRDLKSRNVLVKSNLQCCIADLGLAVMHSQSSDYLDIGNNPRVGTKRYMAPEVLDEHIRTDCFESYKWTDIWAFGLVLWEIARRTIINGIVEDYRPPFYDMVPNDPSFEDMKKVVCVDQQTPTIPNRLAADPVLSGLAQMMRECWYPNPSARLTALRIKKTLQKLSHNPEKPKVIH
assay_details: Inhibition of BMP9-stimulated ALK1 in mouse C2C12 cells assessed as reduction in Smad1/5 phosphorylation at 10 uM pretreated for 2 hrs followed by BMP9-stimulation after 30 mins by western blot analysis relative to control
Format: cell-based
Kindly state inhibition for each of the entries shown.

Before answering, review these 2 worked examples.
molecule_smiles	inhibition
COc1cc(O)c2c(c1)CCC[C@H](O)[C@H](O)[C@@H](O)CCC[C@H](C)OC2=O	70 to 80%
COc1cc(O)c2c(c1)CCC[C@H](O)[C@H](O)C(=O)CCC[C@H](C)OC2=O	100%

Here is another molecule to look at.
Test item "C=C1CCC[C@H](C)OC(=O)c2c(O)cc(OC)cc2CCC[C@H](O)[C@@H]1O" ; Activin receptor type-1-like (Mus musculus); reported inhibition was 70 to 80%

* * *

system_tested: Bone morphogenetic protein receptor type-1B (Homo sapiens, UniProt O00238)
Sequence (O00238 whole entry): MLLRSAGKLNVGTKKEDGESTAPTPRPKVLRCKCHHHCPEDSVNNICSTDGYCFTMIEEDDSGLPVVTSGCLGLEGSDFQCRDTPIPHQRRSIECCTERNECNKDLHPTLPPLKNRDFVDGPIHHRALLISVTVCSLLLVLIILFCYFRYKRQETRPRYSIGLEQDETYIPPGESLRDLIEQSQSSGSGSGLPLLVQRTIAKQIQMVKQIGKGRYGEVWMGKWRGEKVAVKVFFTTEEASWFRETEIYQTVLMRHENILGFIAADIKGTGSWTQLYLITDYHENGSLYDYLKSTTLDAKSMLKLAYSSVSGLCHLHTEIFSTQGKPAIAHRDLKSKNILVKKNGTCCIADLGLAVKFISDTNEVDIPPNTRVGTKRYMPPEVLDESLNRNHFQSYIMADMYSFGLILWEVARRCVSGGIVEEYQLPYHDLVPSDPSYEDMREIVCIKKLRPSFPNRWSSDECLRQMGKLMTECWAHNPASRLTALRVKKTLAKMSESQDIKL
assay_metric: pIC50
Answers are plain numbers, as −log10 of the molar value.

pIC50 recorded for this compound, "COc1cc(O)c2c(c1)CCC[C@H](O)[C@H](O)C(=O)CCC[C@H](C)OC2=O" , is 6.14

* * *

system_tested: ALK5 (TGF-beta receptor type-1) (Homo sapiens, UniProt P36897)
assay_details: Inhibition of human ALK5 at 10 uM using casein as substrate in presence of 200 uM ATP by radiometric kinase assay relative to control
condition_summary: human ALK5 kinase (TGF-beta receptor type-1), probe casein
assay_metric: inhibition at 10 µM

inhibition at 10 µM recorded for this compound, "COc1cc(O)c2c(c1)CCC[C@H](O)[C@H](O)C(=O)CCC[C@H](C)OC2=O" , is < 40%

* * *

system_tested: Activin receptor type-1 (Homo sapiens)
Sequence (Q04771 whole entry): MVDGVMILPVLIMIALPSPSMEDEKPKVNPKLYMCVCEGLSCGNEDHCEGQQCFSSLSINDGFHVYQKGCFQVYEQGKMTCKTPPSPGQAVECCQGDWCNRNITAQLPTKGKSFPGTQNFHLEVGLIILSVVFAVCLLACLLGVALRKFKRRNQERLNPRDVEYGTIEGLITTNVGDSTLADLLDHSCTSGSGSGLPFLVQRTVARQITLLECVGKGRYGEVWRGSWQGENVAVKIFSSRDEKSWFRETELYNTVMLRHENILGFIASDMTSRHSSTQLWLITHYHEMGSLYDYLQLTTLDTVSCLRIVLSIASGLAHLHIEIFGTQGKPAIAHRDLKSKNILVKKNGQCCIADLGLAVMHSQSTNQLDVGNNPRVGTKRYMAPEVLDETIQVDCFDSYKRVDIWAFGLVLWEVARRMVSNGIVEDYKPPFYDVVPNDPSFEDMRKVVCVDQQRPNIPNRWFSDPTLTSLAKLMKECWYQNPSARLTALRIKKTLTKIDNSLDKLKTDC
assay_details: Inhibition of human ALK2 using casein as substrate in presence of 200 uM ATP by radiometric kinase assay
assay_metric: pIC50
Numbers only, as −log10 of the molar value.

pIC50 recorded for this molecule, "COc1cc(O)c2c(c1)CCC[C@H](O)[C@H](O)C(=O)CCC[C@H](C)OC2=O" , is 5.47

* * *

system_tested: Vascular endothelial growth factor receptor 2 (Homo sapiens)
Sequence (P35968 whole entry): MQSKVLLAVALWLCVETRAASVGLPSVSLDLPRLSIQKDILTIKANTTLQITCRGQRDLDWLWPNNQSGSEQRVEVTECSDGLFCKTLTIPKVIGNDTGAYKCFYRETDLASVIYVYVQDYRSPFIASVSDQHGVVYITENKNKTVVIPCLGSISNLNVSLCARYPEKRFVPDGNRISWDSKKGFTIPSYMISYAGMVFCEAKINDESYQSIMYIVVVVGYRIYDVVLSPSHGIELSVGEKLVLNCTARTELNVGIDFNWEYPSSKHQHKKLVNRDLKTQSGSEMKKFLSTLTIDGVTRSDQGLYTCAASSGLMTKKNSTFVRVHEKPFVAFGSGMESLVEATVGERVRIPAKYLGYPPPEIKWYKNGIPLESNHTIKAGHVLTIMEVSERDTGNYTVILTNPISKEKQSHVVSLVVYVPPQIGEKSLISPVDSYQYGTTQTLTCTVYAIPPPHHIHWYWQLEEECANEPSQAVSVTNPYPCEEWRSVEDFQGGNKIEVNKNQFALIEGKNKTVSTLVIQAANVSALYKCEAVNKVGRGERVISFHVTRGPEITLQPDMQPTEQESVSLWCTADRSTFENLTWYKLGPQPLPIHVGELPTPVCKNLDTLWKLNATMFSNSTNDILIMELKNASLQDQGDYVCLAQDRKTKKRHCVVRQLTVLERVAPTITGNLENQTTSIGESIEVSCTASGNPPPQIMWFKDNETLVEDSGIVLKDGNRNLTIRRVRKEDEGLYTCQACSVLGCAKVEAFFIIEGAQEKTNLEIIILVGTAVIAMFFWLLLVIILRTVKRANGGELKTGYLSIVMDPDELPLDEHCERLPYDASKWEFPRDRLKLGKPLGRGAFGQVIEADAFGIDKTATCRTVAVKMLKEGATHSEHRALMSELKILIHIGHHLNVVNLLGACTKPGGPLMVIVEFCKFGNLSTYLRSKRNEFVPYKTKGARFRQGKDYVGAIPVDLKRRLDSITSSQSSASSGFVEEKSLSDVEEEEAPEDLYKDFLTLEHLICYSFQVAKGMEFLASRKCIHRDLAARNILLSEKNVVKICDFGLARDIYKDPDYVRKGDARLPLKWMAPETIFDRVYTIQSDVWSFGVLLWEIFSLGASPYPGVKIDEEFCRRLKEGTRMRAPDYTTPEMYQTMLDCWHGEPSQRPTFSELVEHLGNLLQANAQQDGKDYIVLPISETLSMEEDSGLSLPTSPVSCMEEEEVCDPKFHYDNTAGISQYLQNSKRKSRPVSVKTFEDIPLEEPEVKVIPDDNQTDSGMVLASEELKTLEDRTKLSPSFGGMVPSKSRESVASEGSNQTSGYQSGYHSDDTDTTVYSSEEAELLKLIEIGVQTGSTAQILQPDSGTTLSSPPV
Kindly state IC50 for each of the entries shown.
Give bare numbers, in nM.

molecule_smiles	system_tested	assay_metric	unit_abbrev	result_number
COc1cc(O)c2c(c1)CCC[C@H](O)[C@H](O)C(=O)/C=C\C[C@H](C)OC2=O	Vascular endothelial growth factor receptor 2 (Homo sapiens)	IC50	nM	6.34

Here is another molecule to look at.
IC50 recorded for this molecule, "COc1cc(O)c2c(c1)CCC[C@H](O)[C@H](O)C(=O)CCC[C@H](C)OC2=O" , is 163

* * *

system_tested: Activin receptor type-1B (Homo sapiens, UniProt P36896)
Sequence (P36896 whole entry): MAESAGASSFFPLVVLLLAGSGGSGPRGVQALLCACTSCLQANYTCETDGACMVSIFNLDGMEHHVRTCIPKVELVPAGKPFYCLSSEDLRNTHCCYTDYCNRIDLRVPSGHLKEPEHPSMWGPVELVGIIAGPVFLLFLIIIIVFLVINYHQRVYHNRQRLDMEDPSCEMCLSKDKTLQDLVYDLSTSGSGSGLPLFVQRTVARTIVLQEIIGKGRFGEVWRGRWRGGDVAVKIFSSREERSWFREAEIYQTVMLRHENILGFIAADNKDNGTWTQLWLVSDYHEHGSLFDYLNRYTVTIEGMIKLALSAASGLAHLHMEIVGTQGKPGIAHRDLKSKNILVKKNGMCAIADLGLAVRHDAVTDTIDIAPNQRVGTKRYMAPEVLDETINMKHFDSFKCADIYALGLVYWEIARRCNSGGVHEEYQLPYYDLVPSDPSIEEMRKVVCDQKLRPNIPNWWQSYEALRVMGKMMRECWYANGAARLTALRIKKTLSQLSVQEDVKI
assay_metric: IC50 (nM)
Numbers only, in nM.

IC50 recorded for this molecule, "COc1cc(O)c2c(c1)CCC[C@H](O)[C@H](O)C(=O)CCC[C@H](C)OC2=O" , is 2760

* * *

system_tested: ALK6 (bone morphogenetic protein receptor type-1B) (Homo sapiens, UniProt O00238)
Sequence (O00238 whole entry): as the sequence (O00238 whole entry) above
assay_details: Inhibition of human ALK6 at 10 uM using casein as substrate in presence of 200 uM ATP by radiometric kinase assay relative to control
condition_summary: probe casein
assay_metric: inhibition at 10 µM

inhibition at 10 µM recorded for this compound, "COc1cc(O)c2c(c1)CCC[C@H](O)[C@H](O)C(=O)CCC[C@H](C)OC2=O" , is < 40%

* * *

system_tested: Dual specificity mitogen-activated protein kinase kinase 2 (Homo sapiens, UniProt P36507)
Sequence (P36507 whole entry): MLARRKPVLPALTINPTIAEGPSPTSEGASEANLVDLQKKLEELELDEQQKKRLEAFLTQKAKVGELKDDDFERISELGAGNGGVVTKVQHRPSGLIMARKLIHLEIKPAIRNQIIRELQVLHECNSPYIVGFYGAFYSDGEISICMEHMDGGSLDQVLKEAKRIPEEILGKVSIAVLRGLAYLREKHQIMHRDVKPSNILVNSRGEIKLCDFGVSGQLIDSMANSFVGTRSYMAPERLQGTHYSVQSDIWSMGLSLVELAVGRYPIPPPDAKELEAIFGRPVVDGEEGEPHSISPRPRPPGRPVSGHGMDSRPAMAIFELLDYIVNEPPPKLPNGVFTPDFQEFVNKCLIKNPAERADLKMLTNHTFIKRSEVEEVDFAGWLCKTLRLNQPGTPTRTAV
assay_details: Inhibition of human MEK2 using ERK2 as substrate in presence of [gamma-33P]-ATP by scintillation counting method
assay_metric: IC50
Please report the result as a number followed by the unit.

IC50 recorded for this compound, "COc1cc(O)c2c(c1)CCC[C@H](O)[C@H](O)C(=O)/C=C\C[C@H](C)OC2=O" , is 8.16 nM

* * *

system_tested: Activin receptor type-1-like (Homo sapiens, UniProt P37023)
Sequence (P37023 whole entry): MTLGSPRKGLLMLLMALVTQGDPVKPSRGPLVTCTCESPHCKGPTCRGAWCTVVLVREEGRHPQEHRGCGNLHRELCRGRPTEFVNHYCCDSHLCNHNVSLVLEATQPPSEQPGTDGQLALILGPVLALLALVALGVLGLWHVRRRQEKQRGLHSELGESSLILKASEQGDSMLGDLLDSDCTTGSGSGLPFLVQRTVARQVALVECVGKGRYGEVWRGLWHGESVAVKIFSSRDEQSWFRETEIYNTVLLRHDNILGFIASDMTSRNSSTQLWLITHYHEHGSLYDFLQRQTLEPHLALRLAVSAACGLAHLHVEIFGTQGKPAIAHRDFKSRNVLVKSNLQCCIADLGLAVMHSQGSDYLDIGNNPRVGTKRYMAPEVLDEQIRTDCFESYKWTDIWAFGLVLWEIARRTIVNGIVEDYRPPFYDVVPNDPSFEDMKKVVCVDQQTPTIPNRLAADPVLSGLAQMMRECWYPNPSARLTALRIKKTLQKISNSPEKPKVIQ
assay_details: Inhibition of human ALK1 using casein as substrate in presence of 10 uM ATP by radiometric kinase assay
assay_metric: IC50 (nM)
Answers are plain numbers, in nM.

IC50 recorded for this compound, "COc1cc(O)c2c(c1)CCC[C@H](O)[C@H](O)C(=O)CCC[C@H](C)OC2=O" , is 62

* * *

system_tested: TGF-beta receptor type-1 (Homo sapiens)
Sequence (P36897 whole entry): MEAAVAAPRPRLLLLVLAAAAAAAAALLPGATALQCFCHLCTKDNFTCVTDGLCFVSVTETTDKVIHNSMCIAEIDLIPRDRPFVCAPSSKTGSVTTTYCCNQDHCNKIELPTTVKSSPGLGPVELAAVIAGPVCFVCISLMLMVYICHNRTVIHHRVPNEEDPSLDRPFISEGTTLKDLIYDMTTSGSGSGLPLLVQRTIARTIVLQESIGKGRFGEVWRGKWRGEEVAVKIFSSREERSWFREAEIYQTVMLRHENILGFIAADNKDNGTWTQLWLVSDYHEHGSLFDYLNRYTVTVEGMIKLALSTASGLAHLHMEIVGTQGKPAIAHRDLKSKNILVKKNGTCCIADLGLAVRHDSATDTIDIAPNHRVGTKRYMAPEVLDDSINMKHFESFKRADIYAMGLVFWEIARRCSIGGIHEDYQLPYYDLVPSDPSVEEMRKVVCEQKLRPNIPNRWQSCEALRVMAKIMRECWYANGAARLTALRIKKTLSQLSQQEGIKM
assay_metric: pIC50
One number for each entry, as −log10 of the molar value.

pIC50 recorded for this molecule, "COc1cc(O)c2c(c1)CCC[C@H](O)[C@H](O)C(=O)CCC[C@H](C)OC2=O" , is 5.14

FYI, the data here is from ChEMBL document CHEMBL3997792.
